Target: COMMD1 (Homo sapiens)
REPORTED_ENDPOINT: pKd
Note: pKd values are expressed as the negative base-10 logarithm of concentration in M.

Observed pKd, COMMD1 (Homo sapiens), CCCCCC(=O)OC[C@H](COP(=O)(O)O[C@@H]1[C@H](O)[C@H](O)[C@@H](OP(=O)(O)O)[C@H](OP(=O)(O)O)[C@H]1O)OC(=O)CCCCC [PtdIns(4,5)P2] : 7.39

###

Target: COMMD1 (Homo sapiens, UniProt Q8N668, K167E/K173E)
Sequence (Q8N668 whole entry K167E/K173E): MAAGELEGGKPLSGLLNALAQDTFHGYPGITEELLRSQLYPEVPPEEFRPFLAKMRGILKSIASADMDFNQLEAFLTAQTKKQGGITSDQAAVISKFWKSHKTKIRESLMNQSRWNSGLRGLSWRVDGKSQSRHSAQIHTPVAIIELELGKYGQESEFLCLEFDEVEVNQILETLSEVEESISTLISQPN
Test: intrinsic fluorescence quenching titration
REPORTED_ENDPOINT: Kd
Please report the result as a number followed by the unit.

So, CCCCCC(=O)OC[C@H](COP(=O)(O)O[C@@H]1[C@H](O)[C@H](O)[C@@H](OP(=O)(O)O)[C@H](OP(=O)(O)O)[C@H]1O)OC(=O)CCCCC [PtdIns(4,5)P2] ? Its Kd was 284 nM

Cited source for all entries: paper doi:10.1101/572578v1
